# Test system: PC-3 prostate
# METHOD NOTES: NCI tumour cell line growth inhibition, 48 h
The compounds listed here are annotated with their TGI.

# count of solved cases: 2
QUERY: Give its TGI value. Item: "Cn1ccc(C(=O)NCCN(CCNC(=O)c2ccn(C)c(=O)c2O)CCNC(=O)c2ccn(C)c(=O)c2O)c(O)c1=O"
RESULT: > 100 µM

QUERY: And for "Cc1ccc2c(c1)c(Sc1ccc(C(=O)NO)cc1)c1n2CN(C)CC1" ?
RESULT: 3.77 µM

Next compound, please.
QUERY: Give its TGI value. Item: "O=C(NC(=O)c1ccccc1[N+](=O)[O-])Nc1ccc(Oc2ncc(Cl)cn2)c([N+](=O)[O-])c1"
RESULT: > 100 µM

###

The compounds listed here are annotated with their TGI.
# Tested on: U251 CNS
# METHOD NOTES: NCI tumour cell line growth inhibition, 48 h

# count of solved cases: 3
QUERY: Give its TGI value. Item: "Cn1c(=O)c2c(nc3sc4c(n32)C(=O)c2c(O)ccc(O)c2C4=O)n(C)c1=O"
RESULT: > 48.7 µM

QUERY: And for "C/C(=N\NC(=S)NCCCCNC(=S)N/N=C(\C)c1ccccn1)c1ccccc1" ?
RESULT: 15.6 µM

QUERY: And for "N#Cc1c(N)n2c(nc1=Nc1ccc(Cl)cc1)sc1cc(Cl)ccc12" ?
RESULT: > 100 µM

Further cases:
QUERY: Give its TGI value. Item: "N#CCCN(CCC#N)c1ccc(/C=C(\NC(=O)c2cc([N+](=O)[O-])ccc2Cl)C(=O)Nc2ccccc2)cc1"
RESULT: > 100 µM

QUERY: And for C=C1CCCC(C)(C)C1CCC1(C)CCC(C(C)C(=O)OC)OO1 (stereo unspecified) ?
RESULT: 7.21 µM

QUERY: And for CC1=NC2c3c(-c4ccc(Cl)cc4)cn(-c4ccc(C)cc4)c3N=CN2N1 (stereo unspecified) ?
RESULT: > 100 µM

###

# Tested on: MCF7 breast
# METHOD NOTES: NCI tumour cell line growth inhibition, 48 h
METRIC NAME: TGI

QUERY: Please provide the recorded TGI for "Cc1cc(O)cc(C)c1/C=C/c1cncc(C(N)=O)c1" , tested on MCF7 breast.
RESULT: > 25 µM

QUERY: And for "N=N/C(=C\c1c(O)[nH]c2ccccc12)c1ccccc1" ?
RESULT: > 100 µM

QUERY: And for Cc1[nH]c(=O)[nH]c(=O)c1/C=C/C(=O)NC(CO)CS(=O)Cc1ccccc1 (configuration not stated) ?
RESULT: > 300 µM

Further cases:
QUERY: Please provide the recorded TGI for "COc1cc(-c2oc3c(OC)cc(OC)c(O)c3c(=O)c2OC)cc(OC)c1OC" , tested on MCF7 breast.
RESULT: > 100 µM

QUERY: And for "CC1(C)CC(=O)C2=C(C1)NC1=C(C2)C(=O)CC(C)(C)C1" ?
RESULT: > 100 µM

QUERY: And for "Nc1ccc(Oc2ccc(C3(c4ccc(Oc5ccc(N)cc5)cc4)C4CC5CC(C4)CC3C5)cc2)cc1" ?
RESULT: > 52.7 µM

QUERY: And for "Cn1nc(C(F)(F)F)cc1-c1c[nH]c(OCc2ccc(Cl)cc2)c(-c2ccc(Cl)c(C(F)(F)F)c2)c1=O" ?
RESULT: > 50 µM

QUERY: And for COC(=O)C1=C(OC(=O)c2ccccc2)C(C(=O)OC)[C@@]2(O)[C@@H](C(=O)OC)[C@H](C)C[C@@H]1[C@@H]2C(=O)OC (some centres not stated) ?
RESULT: > 100 µM
